- EXPERIMENTAL SYSTEM: Calmodulin-1 (Homo sapiens) (UniProt P0DP23)
- EXPERIMENTAL DETAILS: calcium-bound CALM1 binders on microarrays, profiling panel, artefact control for SMM control-protein annotation, biochemical, small-molecule microarray, Cy5-labelled CALM1, plus calcium (AID 1112);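 also: score merges spot fluorescence with signal to noise from triplicate slides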
- DETAILS: Cy5-CALM1 binding fluorescence, higher = more signal
MEASUREMENT TYPE: composite z-score
Give the figure only, with no unit attached.

Write down the reported composite z-score of CCOC(=O)[C@H](CC(C)C)NC(=O)CCC1CC(OC(=O)NCc2cccc3ccccc23)CC2(CCCC(COC(=O)NCc3ccccc3)O2)O1 (stereo not given in full) , test system: Calmodulin-1 (Homo sapiens) (UniProt P0DP23).
-0.559

Write down the reported composite z-score of CCCNC(=O)OC[C@H]1O[C@H](CCON=C(C)CCN2CCc3nc(-c4ccccc4)c(-c4ccccc4)cc3C2)C=C[C@@H]1Oc1ccc(OC)cc1 , test system: Calmodulin-1 (Homo sapiens) (UniProt P0DP23).
-0.0536

Write down the reported composite z-score of Cc1cc2c(nc1C)CCCN2CC(C)ON=C[C@@H](C)[C@H](OCc1ccccc1)C(C)C (stereo not given in full) , test system: Calmodulin-1 (Homo sapiens) (UniProt P0DP23).
-0.304

Write down the reported composite z-score of CCOC(=O)NN=C1C[C@@H](O)[C@@H](O)[C@@H]2[C@@H]3C(=O)N(Cc4ccc5c(c4)OCO5)C(=O)[C@@H]3CC[C@@H]12 , test system: Calmodulin-1 (Homo sapiens) (UniProt P0DP23).
-0.727

Write down the reported composite z-score of C[C@@H](c1ccccc1)N1C(=O)[C@H]2[C@H]3[C@H](O)[C@H](O)CC(=O)[C@@H]3CC[C@H]2C1=O , test system: Calmodulin-1 (Homo sapiens) (UniProt P0DP23).
-0.241

Values were extracted from PubChem BioAssay.
